Assay: Solvent solubility in water
Type: physicochemical
Settings: 20 g solvent mixed with 20 g water, phases separated 24 hours, water layer tested by gas chromatography
Procedure: The following properties of the solvents were tested: • Kinematic viscosity at 25° C. […] The funnel containing the mixture was inverted several times. The water and solvent phases were allowed to separate for 24 hours, resulting in two distinct phases. For water solubility in solvent, the solvent layer was transferred to a sample vial and was tested for water content according to ASTM E1064. […]
Property Name: Solvent solubility in water

| Compound | Val |
| --- | --- |
| CC(=O)OCCCCCCC(C)C [Solvent C8, isononyl acetate] | <0.001 wt % |
| CC(C)(C)C(=O)OCc1ccccc1 [Solvent E4, Benzyl pivalate] | 0.010 wt % |
| O=C(OC1CCCCC1)c1ccccc1 [Solvent E2, Cyclohexyl benzoate] | 0.007 wt % |
| CN(C)C(=O)CCCCCC(C)(C)C [Solvent E5, N,N-dimethyl neodecanamide] | 0.141 wt % |
| CC(C)CCCCCCCOC(=O)c1ccccc1 [Solvent C6, isodecyl benzoate] | <0.001 wt % |

###

Listing of entries alongside the reported Water content.
assay: Water content of the solvents, Karl Fischer titration (ASTM E1064); format: physicochemical

| Compound | Water content |
| --- | --- |
| CC(=O)OCCCCCCC(C)C [Solvent C8, isononyl acetate] | 722 ppm w/w |
| CCC(C)OC(=O)c1ccccc1 (stereo not drawn) [Solvent E1, Secondary butyl benzoate] | 499 ppm w/w |
| CC(=O)OCCCCCC(C)C [Solvent C7, isooctyl acetate] | 699 ppm w/w |
| O=C(OC1CCCCC1)c1ccccc1 [Solvent E2, Cyclohexyl benzoate] | 102 ppm w/w |
| CC(C)CCCCCCCOC(=O)c1ccccc1 [Solvent C6, isodecyl benzoate] | 332 ppm w/w |
| CC(C)(C)C(=O)OCc1ccccc1 [Solvent E4, Benzyl pivalate] | 232 ppm w/w |
| CCC(C)OC(=O)c1ccc(C(=O)OC(C)CC)o1 (stereo not drawn) [Solvent C1, Di-sec butyl furan-2,5-dicarboxylate, reference compound] | 269 ppm w/w |
| CC(C)CCCCCOC(=O)c1ccccc1 [Solvent E3, Isooctyl benzoate] | 113 ppm w/w |
| CN(C)C(=O)CCCCCC(C)(C)C [Solvent E5, N,N-dimethyl neodecanamide] | 589 ppm w/w |

###

test: Solvency test, active ingredient bromoxynil octanoate; type: physicochemical; details: wt % active ingredient in solution; highest concentration with no crystals at room temperature
Listing of entries alongside the reported Solvency, Bromoxynil Octanoate.

| Compound | Solvency, Bromoxynil Octanoate (wt %) |
| --- | --- |
| CC(C)CCCCCCCOC(=O)c1ccccc1 [Solvent C6, isodecyl benzoate] | 62.1 |
| CC(=O)OCCCCCC(C)C [Solvent C7, isooctyl acetate] | 70.9 |
| CC(=O)OCCCCCCC(C)C [Solvent C8, isononyl acetate] | 67.5 |
| CC(C)(C)C(=O)OCc1ccccc1 [Solvent E4, Benzyl pivalate] | 68.8 |
| CCC(C)OC(=O)c1ccccc1 (stereo not drawn) [Solvent E1, Secondary butyl benzoate] | 73.0 |
| CN(C)C(=O)CCCCCC(C)(C)C [Solvent E5, N,N-dimethyl neodecanamide] | 63.5 |
| CC(=O)OCc1ccccc1 [Solvent C4, Benzyl acetate, reference compound] | 72.9 |
| CCC(C)OC(=O)c1ccc(C(=O)OC(C)CC)o1 (stereo not drawn) [Solvent C1, Di-sec butyl furan-2,5-dicarboxylate, reference compound] | 48.3 |
| CCCCOC(=O)c1ccccc1 [Solvent C3, Butyl benzoate, reference compound] | 69.7 |
| CC(C)CCCCCOC(=O)c1ccccc1 [Solvent E3, Isooctyl benzoate] | 68.6 |
| CCCCCCCCCC(=O)N(C)C [Solvent C5, linear N,N-dimethyldecanamide, reference compound] | 60.2 |
| O=C(OC1CCCCC1)c1ccccc1 [Solvent E2, Cyclohexyl benzoate] | 68.3 |
